Where do the numbers come from? From FireProtDB (doi:10.1002/prot.340090203).

B1: Tryptophan synthase alpha chain, P0A877 (parent)
chain: MERYESLFAQLKERKEGAFVPFVTLGDPGIEQSLKIIDTLIEAGADALELGIPFSDPLADGPTIQNATLRAFAAGVTPAQCFEMLALIRQKHPTIPIGLLMYANLVFNKGIDEFYAQCEKVGVDSVLVADVPVEESAPFRQAALRHNVAPIFICPPNADDDLLRQIASYGRGYTYLLSRAGVTGAENRAALPLNHLVAKLKEYNAAPPLQGFGISAPDQVKAAIDAGAAGAISGSAIVKIIEQHINEPEKMLAALKVFVQPMKAATRS

Variants of: B1
Conditions: Escherichia coli (strain K12); pH 9; 54.1 °C; Thermal; DSC; Sodium tetraborate 1 mM; EDTA 1 mM; reversible: yes; structure 1WQ5; whole UniProt chain shown
Reported heat capacity change of unfolding by item:
Write it as a number; the unit kcal/mol/K goes unstated.

Recorded heat capacity change of unfolding, per entry:
1) P96A 3.6
2) P62A 4.9
3) P132A 4.8
4) P57A 4.7

Lab note: next variant to report on.
-- ask For the variant P132G , what heat capacity change of unfolding is on record?
-- reply 5.1
